- measurement_target: human notum pectinacetyltransferase (Homo sapiens, UniProt Q6P988)
- Construct: made in house; unpurified conditioned medium used
- Sequence (Q6P988 20-496): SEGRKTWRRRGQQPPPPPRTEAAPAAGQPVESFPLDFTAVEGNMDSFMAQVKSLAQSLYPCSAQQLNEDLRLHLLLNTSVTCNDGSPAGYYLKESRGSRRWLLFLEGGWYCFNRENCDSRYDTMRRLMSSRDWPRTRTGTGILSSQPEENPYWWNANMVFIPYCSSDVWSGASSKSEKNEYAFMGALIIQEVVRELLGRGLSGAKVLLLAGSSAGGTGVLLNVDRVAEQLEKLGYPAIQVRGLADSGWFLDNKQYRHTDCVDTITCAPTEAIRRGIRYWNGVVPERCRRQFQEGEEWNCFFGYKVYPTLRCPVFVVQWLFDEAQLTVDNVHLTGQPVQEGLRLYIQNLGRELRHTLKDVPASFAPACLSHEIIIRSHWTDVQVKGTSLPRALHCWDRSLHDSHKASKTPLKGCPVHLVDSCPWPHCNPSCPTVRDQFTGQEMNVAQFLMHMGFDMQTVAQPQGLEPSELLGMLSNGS
- assay_protocol: Reporter assay (CellSensor LEF/TCF-bla FreeStyle 293F cells, Wnt3a and notum conditioned media)
- Type: cell-based
- assay_setup: class symbols
test_readout: EC50

Some entries whose results are on file:
O=C(O)c1cc2c(s1)-c1cc(F)ccc1S(=O)(=O)C2: < 50 nM
O=C(c1cc2c(s1)-c1cc(Cl)cc(F)c1OC2)N1CCC(F)C1 (stereo not shown): < 50 nM
O=C(O)C1CCN(C(=O)c2cc3c(s2)-c2c(F)ccc(F)c2SC3)C1 (stereo not shown): < 50 nM
NC(=O)c1cc2c(s1)-c1cc(Cl)ccc1SC2: < 50 nM
COC1CCN(C(=O)c2cc3c(s2)-c2cccc(F)c2CC3)C1 (stereo not shown): < 50 nM
Cc1ccc(Cl)c2c1-c1sc(C(N)=O)cc1CO2: < 50 nM

Simply: N#Cc1ccc2c(c1)CCc1cc(C(=O)O)sc1-2 , human notum pectinacetyltransferase (Homo sapiens, UniProt Q6P988), EC50 = < 1000 nM

Simply: Cc1cccc2c1OCc1cc(C(N)=O)sc1-2 , human notum pectinacetyltransferase (Homo sapiens, UniProt Q6P988), EC50 = < 50 nM

Simply: Cc1cc2c(cc1F)-c1sc(C(=O)O)cc1CO2 , human notum pectinacetyltransferase (Homo sapiens, UniProt Q6P988), EC50 = < 50 nM

Simply: COc1ccc2c(c1)OCc1cc(C(=O)O)sc1-2 , human notum pectinacetyltransferase (Homo sapiens, UniProt Q6P988), EC50 = < 100 nM

Simply: NC(=O)c1cc2c(s1)-c1c(F)ccc(F)c1SC2 , human notum pectinacetyltransferase (Homo sapiens, UniProt Q6P988), EC50 = < 50 nM

Simply: O=C(O)c1cc2c(s1)-c1cc(F)cc(Cl)c1SC2 , human notum pectinacetyltransferase (Homo sapiens, UniProt Q6P988), EC50 = < 50 nM

Simply: Cc1cc(Cl)cc2c1OCc1cc(C(=O)O)sc1-2 , human notum pectinacetyltransferase (Homo sapiens, UniProt Q6P988), EC50 = < 50 nM

Simply: NC(=O)c1cc2c(s1)-c1cc(Cl)ccc1OCC2 , human notum pectinacetyltransferase (Homo sapiens, UniProt Q6P988), EC50 = < 100 nM

----------
- measurement_target: human notum pectinacetyltransferase (Homo sapiens, UniProt Q6P988)
- Construct: made in house; unpurified conditioned medium used
- assay_protocol: Binding assay (OPTS esterase substrate, fluorimetric)
- Assay type: biochemical
- assay_setup: class symbols
pIC50: −log10 of the molar value.
test_readout: pIC50

Some entries whose results are on file:
COc1ccc2c(c1Cl)CCc1cc(C(=O)N3CCC(C#N)C3)sc1-2 (stereo not drawn): > 7.00
Cc1ccc2c(c1C)CCc1cc(C(N)=O)sc1-2: > 6.00
NC(=O)c1cc2c(s1)-c1c(F)ccc(Cl)c1OC2: > 7.30
NC(=O)c1cc2c(s1)-c1cccc(F)c1CC2: > 7.30
N#CCNC(=O)c1cc2c(s1)-c1ccccc1CC2: > 7.30

Sample NC(=O)c1cc2c(s1)-c1ccc(Cl)c(Cl)c1OC2 ; pIC50 observed: > 7.00

Sample CC1Cc2cc(C(=O)O)sc2-c2c(F)ccc(F)c21 (stereo not drawn) ; pIC50 observed: > 7.30

Sample COc1ccc2c(c1)OCc1cc(C(=O)O)sc1-2 ; pIC50 observed: > 5.70

Sample O=C(O)c1cc2c(s1)-c1ccc(Cl)c(Cl)c1SC2 ; pIC50 observed: > 7.00

Sample O=C(O)c1cc2ccc3scc(Cl)c3c2s1 ; pIC50 observed: > 7.30

Sample CCOC(=O)c1cc2c(s1)-c1ccc(C)c(C#N)c1CC2 ; pIC50 observed: > 7.30

Sample Cc1cc2c(cc1F)-c1sc(C(=O)O)cc1CS2 ; pIC50 observed: > 7.00

Sample Cc1cc2c(cc1C)-c1sc(C(=O)O)cc1CC2 ; pIC50 observed: > 5.70

The measurements presented in this section are drawn from patent US9624238B2.
